Documented binding signal across a set of binders
# targetEntity: TDP-43 (Homo sapiens, UniProt Q13148 1-414)
# Sequence (Q13148 whole entry): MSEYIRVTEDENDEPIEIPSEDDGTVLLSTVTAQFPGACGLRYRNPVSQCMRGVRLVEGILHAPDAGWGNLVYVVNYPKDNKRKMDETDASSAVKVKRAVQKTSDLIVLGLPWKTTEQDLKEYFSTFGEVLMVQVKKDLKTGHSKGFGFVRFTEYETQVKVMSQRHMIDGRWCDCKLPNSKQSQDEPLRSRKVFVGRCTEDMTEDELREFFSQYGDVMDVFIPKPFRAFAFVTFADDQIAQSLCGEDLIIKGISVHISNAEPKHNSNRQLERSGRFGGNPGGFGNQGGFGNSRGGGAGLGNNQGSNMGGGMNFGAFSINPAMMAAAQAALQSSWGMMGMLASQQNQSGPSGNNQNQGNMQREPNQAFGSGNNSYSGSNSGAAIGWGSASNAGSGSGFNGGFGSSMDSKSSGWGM
# procedureText: RNA Bind-n-Seq with designed 260-mer pool; 25 mM Tris-HCl, 150 mM KCl, 3 mM MgCl2, BSA (printed 500 mg/mL), 20 units/mL SUPERase IN; pH not stated; 500 nM RNA pool, 1 h, 4 C; TDP-43 5, 50, 500 nM; high values mean tight binding
# measurementConditions: protein: recombinant; tags: SBP (GST cleaved off with PreScission; pGEX-GST-SBP)
Whole data set: some 9,900 sequences, median “r (bound/input frequency ratio)” near 0.7, cut for the highest 2% near 6.5. The sample as a whole holds a higher share of the highest values than the screen did.
recordedEndpoint: binding signal

- ENSMUSG00000058297.1|Spock2 (ssRNA) RNA: GGGAGUUCUACAGUCCGACGAUCGCUUCGAUAUCCGCAUGCUAGGAGGAUGAGGAAGAAAAGGAGACAGAAGAGGCAGGGGAGGAGGCCGAGGAGGAGGAGGGUGAGGCGGGUGAGGCAGAUGAUGGAGGCUACAUCUGGUAGAUAGCCCUCGACGGCCUCGGCAGGCCAGGGUGCCGACGGCCAGAAAGACAGGCCAGAAGAGACCUGGACAACAGCAGGCAACUUAGCAAAUGGAUCCGGAAGUCAGUGCGGAGGACCCUGGCUCCAGUGGGGGAGGACUGGGGAGUGUGGCUUGUGUGUACUCUUGCGGUCGCACUAGUGUGGAAUUCUCGGGUGUCAAGG: 3.54 R (bound/input frequency ratio)
- ENSMUSG00000058297.6|Spock2 (ssRNA) RNA: GGGAGUUCUACAGUCCGACGAUCGCUUCGAUAUCCGCAUGCUAGGCAGGGGAGGAGGCCGAGGAGGAGGAGGGUGAGGCGGGUGAGGCAGAUGAUGGAGGCUACAUCUGGUAGAUAGCCCUCGACGGCCUCGGCAGGCCAGGGUGCCGACGGCCAGAAAGACAGGCCAGAAGAGACCUGGACAACAGCAGGCAACUUAGCAAAUGGAUCCGGAAGUCAGUGCGGAGGACCCUGGCUCCAGUGGGGGAGGACUGGGGAGUGUGGCUUGUGUGUAUGUGUGAUAUGAGAUGUGUGUGUAUGAUGUCUCUUGCGGUCGCACUAGUGUGGAAUUCUCGGGUGUCAAGG: 4.92 R (bound/input frequency ratio)
